EXPERIMENTAL SYSTEM: human CB1 receptor (Homo sapiens)
Construct: expressed in transfected cells; host or cells: SK-N-MC cells, stably transfected with pcDNA3 CB-1 (human); semi-purified membrane pellet
Sequence (P21554 whole entry): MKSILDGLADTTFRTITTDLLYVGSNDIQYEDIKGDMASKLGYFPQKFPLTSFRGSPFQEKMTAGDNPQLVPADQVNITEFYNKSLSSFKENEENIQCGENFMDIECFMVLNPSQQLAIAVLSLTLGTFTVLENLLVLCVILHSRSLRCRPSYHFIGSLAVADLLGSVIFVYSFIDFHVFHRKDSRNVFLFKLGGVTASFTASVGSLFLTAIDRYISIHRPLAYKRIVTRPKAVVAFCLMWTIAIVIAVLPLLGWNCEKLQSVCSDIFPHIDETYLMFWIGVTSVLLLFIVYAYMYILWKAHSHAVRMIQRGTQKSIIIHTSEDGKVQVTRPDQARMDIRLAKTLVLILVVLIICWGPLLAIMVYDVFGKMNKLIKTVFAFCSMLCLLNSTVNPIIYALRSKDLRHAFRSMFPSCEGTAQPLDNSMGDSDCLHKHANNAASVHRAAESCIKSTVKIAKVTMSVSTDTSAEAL
ASSAY DETAILS: Functional cell-based assay, CB1 receptor mediated change in CRE β-gal expression (agonist / inverse agonist)
Can you tell me pEC50 for the items I'm about to list?
FYI, pEC50 means -log10 of a concentration in mol per litre.

Problem: For the compound CCOC(=O)C1CCc2c(c(C(=O)NC3C4CC5CC(C4)CC3C5)nn2C2CCCCC2)C1 (stereo not shown) , what pEC50 is on record?
Solution: 6.71

Problem: For the compound C[C@@H](NC(=O)c1nn(-c2ccc(Cl)cc2Cl)c2c1CCC/C2=C\c1ccc(Cl)cc1)c1ccccc1 , what pEC50 is on record?
Solution: 7.00

Problem: For the compound O=C(NN1CCOCC1)c1nn(-c2ccc(Cl)cc2Cl)c2c1CCC/C2=C\c1ccc(F)cc1 , what pEC50 is on record?
Solution: 8.40

Problem: For the compound O=C(NC12CC3CC(CC(C3)C1)C2)c1nn(-c2ccc(F)cc2)c2c1CCCC2c1ccccc1 (stereo not shown) , what pEC50 is on record?
Solution: 5.99
